B1: STK38L (parent)
chain: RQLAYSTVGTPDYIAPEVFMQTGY

- Variants of: B1
- Experimental protocol: protein stability index of a GFP-peptide fusion (GPS, HEK-293T) (PSI 1-6); higher = more stable;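 note: lentivirally expressed fusions sorted by FACS into six bins by GFP to DsRed ratio, PSI derived from sequencing read proportions per bin multiplied by bin number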
- Stated conditions: c terminus: a fixed tail appended
Endpoint label: protein stability index
Give your answer as a number; write no unit.

Recorded protein stability index, per entry:
Mutant designation	protein stability index
A4G	2.86
Q2R	3.34
A15V	2.28
V18E	3.62
Y24I	2.63
Y13M	2.57
S6D	2.55
L3W	1.53
A4N	2.52
Q2E	2.3

**Query** Returns the measured protein stability index for the input variant. Input: Y13V
**Result** 2.33

**Query** Returns the measured protein stability index for the input variant. Input: Q2T
**Result** 2.53

**Query** Returns the measured protein stability index for the input variant. Input: T10M
**Result** 2.61

**Query** Returns the measured protein stability index for the input variant. Input: P11R
**Result** 1.8

**Query** Returns the measured protein stability index for the input variant. Input: G23C
**Result** 1.6

**Query** Returns the measured protein stability index for the input variant. Input: A15G
**Result** 3.12
